- test-system: T1, human ferroportin (SLC40A1) fused in frame with GFP, stably expressed in HEK293 cells (human, UniProt Q9NP59 1-571)
- T1 sequence (looked up): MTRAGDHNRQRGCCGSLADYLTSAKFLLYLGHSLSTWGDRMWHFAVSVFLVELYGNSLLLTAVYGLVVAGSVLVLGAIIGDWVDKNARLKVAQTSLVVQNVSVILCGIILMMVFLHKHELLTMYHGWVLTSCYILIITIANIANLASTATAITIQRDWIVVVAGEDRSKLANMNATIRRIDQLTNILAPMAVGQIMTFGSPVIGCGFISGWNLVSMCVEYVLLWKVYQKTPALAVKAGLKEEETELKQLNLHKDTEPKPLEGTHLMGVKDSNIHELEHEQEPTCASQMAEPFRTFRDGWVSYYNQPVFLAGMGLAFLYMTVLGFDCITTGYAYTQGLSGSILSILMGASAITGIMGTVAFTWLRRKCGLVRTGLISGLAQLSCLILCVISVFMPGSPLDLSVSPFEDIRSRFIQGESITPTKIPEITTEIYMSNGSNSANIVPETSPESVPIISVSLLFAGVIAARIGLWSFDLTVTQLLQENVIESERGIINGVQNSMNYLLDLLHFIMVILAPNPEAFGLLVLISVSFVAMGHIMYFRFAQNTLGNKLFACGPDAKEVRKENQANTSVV
- assay: cell-based or functional assay
Starred links: 1 amine or outer side, 2 acyl side, 3 side chain; linkers in the order of their positions; H or OH if unused. Positions of bridges follow the written chain, without caps; N, C: chain ends. Non-standard residues stand in square brackets, D forms with d. Groups on a side chain read outwards from the residue. *: point of attachment. Glu(OMe) = COC(=O)CC[C@H](N[*:1])C(=O)[*:2]; C18 diacid = O=C(O)CCCCCCCCCCCCCCCCC(=O)*; Dip = N[C@H](C(=O)O)C(c1ccccc1)c1ccccc1; Palmitoyl = CCCCCCCCCCCCCCCC(=O)*; hLeu = CC(C)CC[C@H](N)C(=O)O; Isovaleryl = CC(C)CC(=O)*; Dap = NC[C@H](N)C(=O)O; AEEA = NCCOCCOCC(=O)O; Acryloyl = C=CC(=O)*; Ahx = NCCCCCC(=O)O
binders and their reported IC50: FPN internalisation
Unit nM implied. Number only.

Below, each entry is followed by its recorded IC50: FPN internalisation result.
• Isovaleryl-ETH[Dip]PCI[dK]K(Acryloyl)K([Ahx-Palmitoyl])[dK]C-NH2 (not fully specified (bridges); cysteine pairing not given here) [Seq. No. 556] = 15.4
• XEXHXPCIXXXC (not fully specified; [Isovaleric Acid]-E-[Dap]-H-[Dpa]-P-C-I-[Lys(1PEG2_1PEG2_Ahx_C18_Diacid)]-[bhPhe]-[(D)Lys]-C-NH2) [Seq. No. 547] = 24.8
• Isovaleryl-[Glu(OMe)]TH[Dip]PCIK([AEEA-AEEA-Dap-C18 diacid])[hLeu][dK]C-NH2 (disulfide 6-11 (inferred)) [Seq. No. 509] = 20.6
• Isovaleryl-ETH[Dip]PCI[dK]LK([Ahx-Palmitoyl])[dK]C-NH2 (not fully specified (bridges); cysteine pairing not given here) [Seq. No. 568] = 11.8

Alright, here's another binder for you.
get_value(item= XETXXPCIXXXC (not fully specified; [Isovaleric Acid]-E-T-[N-(Imidazolethyl)Gly]-[Dpa]-P-C-I-[Lys(1PEG2_1PEG2_Ahx_C18_Diacid)]-[bhPhe]-[(D)Lys]-C-NH2) [Seq. No. 564] , readout=IC50: FPN internalisation) returns 687
